Listed below: GI50 values for each entry.
system: UACC-257; assay: NCI tumour cell line growth inhibition, 48 h
The source made the active and inactive calls. Cut-off read from the data, not from the text of the source: active = GI50 up to about 1.1 µM and inactive = higher.
measured property: GI50

>>> test_result("CC(NCCS(=O)(=O)O)C(=O)O (stereo unspecified)")
"> 100 µM (inactive)"
>>> test_result("CCCn1cc2c(O)nc(SC)nc2n1")
"> 100 µM (inactive)"
>>> test_result("O=C(O)[C@@H]1C2CC([C@@H]1C(=O)O)[C@H](N1C(=O)CCC1=O)[C@@H]2Br (stereo partly specified)")
"> 100 µM (inactive)"
>>> test_result("CC(C)=C1C(=O)C[C@]2(C)C/C=C(\\C)CC/C=C(\\C)CC[C@@H]12")
"11.1 µM (inactive)"
>>> test_result("CCOC(=O)/C(=C\\c1ccc(C#N)cc1)C(C)=O")
"18.6 µM (inactive)"
>>> test_result("Cc1cc(O)c2c(c1)C(=O)C(c1c(C)cc3c(c1O)C(=O)C1OC1C3=O)=CC2=O (stereo unspecified)")
"4.74 µM (inactive)"
>>> test_result("c1sc(NC2=NCCO2)c2c1CCCC2")
"> 100 µM (inactive)"
>>> test_result("O=C(CCc1ccccc1)On1c(-c2ccccc2)nc2ccccc2c1=S")
"22.9 µM (inactive)"
>>> test_result("COc1ccc2nc(NC(=O)C(=O)C(C(=O)c3ccccc3-c3ccccc3)C3OC(=O)c4ccccc43)sc2c1 (stereo unspecified)")
"22.4 µM (inactive)"
>>> test_result("C=C(C)C12CC3CC/C(=N/O)C(C1)C3(N1CCOCC1)C/C2=N/O (stereo unspecified)")
"> 100 µM (inactive)"
>>> test_result("O=C1CCC2CCC1C2 (stereo unspecified)")
"> 100 µM (inactive)"

====

Listed below: GI50 values for each entry.
system: DMS-114; assay: NCI tumour cell line growth inhibition, 48 h
The source made the active and inactive calls. Rule as the data show it: active = GI50 up to about 1.1 µM and inactive = higher.
measured property: GI50

>>> test_result("N#Cc1ccccc1NC(=O)C(=O)C1NC(=S)NC1=O (stereo unspecified)")
"> 100 µM (inactive)"
>>> test_result("C=CCNC(=S)N1CC(C)C(=O)Nc2cc(Cl)ccc21 (stereo unspecified)")
"> 100 µM (inactive)"
>>> test_result("COc1cc2c(c(OC)c1OC)-c1ccc(SC)c(=O)cc1C(CC(=O)Oc1cccc(C#N)c1)C2 (stereo unspecified)")
"0.251 µM (active)"
>>> test_result("COc1ccc(C2C(Cl)C(=O)N2NC(=O)c2ccccc2O)cc1 (stereo unspecified)")
"> 100 µM (inactive)"
>>> test_result("C=C1C(=O)O[C@@H]2C[C@@H](C)[C@@H]3C=CC(=O)[C@@]3(C)[C@@H](O)[C@H]12")
"1.45 µM (inactive)"
>>> test_result("CCOC(=O)CNC1C(NC(C)=O)C(OC)OC2COC(c3ccccc3)OC21 (stereo unspecified)")
"> 100 µM (inactive)"
>>> test_result("C=CCOC(=O)C1CCC(=O)N1C(=O)C(Cl)Cl (stereo unspecified)")
"> 100 µM (inactive)"
>>> test_result("CC1=C(c2cc(C(=O)Nc3cc(C)ccc3C)nc(N)n2)Sc2ccccc2N1")
"> 100 µM (inactive)"
>>> test_result("c1ccc2[nH]c(-c3nc4ccccc4o3)nc2c1")
"> 100 µM (inactive)"
>>> test_result("COc1ccc(C(=O)Cc2ccc(Cl)cc2)cc1OC")
"> 100 µM (inactive)"
>>> test_result("CC1=NOC(=O)/C1=C/c1ccccc1O")
"> 100 µM (inactive)"

These data points were gathered from ChEMBL document CHEMBL1201862.
